This listing pairs molecules with measured Human GLP-1 R activity (cAMP release), % activity with respect to control.
- tested.system: Human GLP-1 receptor (Homo sapiens, UniProt P43220)
- Construct: The full-length cDNA was cloned in pcDNA3.1(+); expressed in transfected cells
- Sequence (P43220 24-463): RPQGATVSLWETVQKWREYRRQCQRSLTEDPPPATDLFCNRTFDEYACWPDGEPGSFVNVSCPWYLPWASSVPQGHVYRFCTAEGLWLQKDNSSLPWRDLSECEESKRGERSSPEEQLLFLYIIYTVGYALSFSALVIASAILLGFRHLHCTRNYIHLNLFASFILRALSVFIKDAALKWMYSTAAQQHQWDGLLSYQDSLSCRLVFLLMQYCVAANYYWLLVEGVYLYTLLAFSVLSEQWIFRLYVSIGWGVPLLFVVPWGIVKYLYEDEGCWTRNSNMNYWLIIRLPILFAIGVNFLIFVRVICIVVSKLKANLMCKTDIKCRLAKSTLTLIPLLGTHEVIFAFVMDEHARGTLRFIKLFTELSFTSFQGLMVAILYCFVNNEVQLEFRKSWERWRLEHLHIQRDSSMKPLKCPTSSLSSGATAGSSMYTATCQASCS
- test.name: In vitro Human GLP-1 R agonist activity (cyclic AMP determination) in CHO/human GLP1R cells
- Assay type: cell-based
- particulars: 10 nM test compound
Provide the measurement as a number trailed by its unit.

The examples below pair each entry with its known result.
molecule	recorded.measurement
CCc1cc(OC)ccc1-c1ccc(CC(CNC(CCCc2ccccc2F)C(N)=O)NC[C@H](CC(=O)O)NC(=O)[C@H](CO)NC(=O)[C@@H](NC(=O)C(C)(Cc2ccccc2F)NC(=O)[C@@H](NC(=O)CNC(=O)[C@H](CCC(N)=O)NC(=O)C(C)(C)NC(=O)[C@H](Cc2c[nH]cn2)NC(=O)OC)[C@@H](C)O)[C@@H](C)O)cc1 (single isomer, unassigned)	81 ± 0.08%
CCc1cc(OC)ccc1-c1ccc(CC(NC(=O)[C@H](CC(=O)O)NC(=O)[C@H](CO)NC(=O)[C@@H](NC(=O)C(C)(Cc2ccccc2F)NC(=O)[C@@H](NC(=O)CNC(=O)[C@H](CC(C(F)(F)F)C(F)(F)F)NC(=O)C(C)(C)NC(=O)[C@H](Cc2c[nH]cn2)NC(C)=O)[C@@H](C)O)[C@@H](C)O)C(=O)NC(CCCc2ccccc2)C(N)=O)cc1 (single isomer, unassigned)	85 ± 0.46%

Per the record, CCc1cc(OC)ccc1-c1ccc(CC(CNC(CCCc2ccccc2)C(N)=O)NC[C@H](CC(=O)O)NC(=O)[C@H](CO)NC(=O)[C@@H](NC(=O)C(C)(Cc2ccccc2F)NC(=O)[C@@H](NC(=O)CNC(=O)[C@H](CCC(N)=O)NC(=O)C(C)(C)NC(=O)[C@H](Cc2c[nH]cn2)NC(=O)OC)[C@H](C)O)[C@H](C)O)cc1 (single isomer, unassigned) has Human GLP-1 R activity (cAMP release), % activity with respect to control of 87 ± 0.12%
